Provenance of the data: patent US12344610B2

Reported EC50 by item:
test system: HEK293 cells overexpressing APOL1 G2; assay: APOL1 G2 HEK293 cell rescue assay (reversal of cell death caused by overexpression of APOL1); format: cell-based; conditions: Homo sapiens, HEK293, HEK293 overexpressing APOL1 G2; geometric mean of at least 2 assay runs; † = single assay run

Molecule | Units Label | EC50
CS(=O)(=O)C1(c2ccc(OCCN3CCC4(CC3)C(=O)Nc3ccc(C#N)cc34)cc2)CCC1 [Compound 181] | µM | 0.0445
CS(=O)(=O)c1ccc(OCCN2CCC3(CC2)C(=O)N(CCO)c2ccc(Cl)cc23)cc1C(F)F [Compound 265] | µM | 0.03
CS(=O)(=O)C1(c2ccc(OCCN3CCC4(CC3)C(=O)Nc3ccc(C(F)F)cc34)cc2)CC(O)C1 (stereo not shown) [Compound 280] | µM | 0.08
CS(=O)(=O)C1(c2c(F)cc(OCCN3CCC4(CC3)C(=O)Nc3ccc(Cl)cc34)cc2F)COC1 [Compound 136] | µM | 0.0224

* * *

Tested on: Trypanosoma brucei Lister 427 VSG221 with APOL1 G1 recombinant protein
Assay: APOL1 G1 trypanosome cell rescue assay (Example B5)
Type: cell-based
Details: Trypanosoma brucei, 20 h, read-out: APOL1 G1 Trypanosome Rescue EC50, Trypanosoma brucei Lister 427 VSG221 with APOL1 G1 recombinant protein, 20 hours, CellTiter-Glo; geometric mean of at least 2 assay runs; † = single assay run
Description: APOL1 G0/G1/G2 viability assay for measurement of cytotoxicity reversal by compound in trypanosomes (APOL1 G0/G1/G2 trypanosome cell rescue assay). APOL1 protein expression and purification. […] Assay Setup. […] Assay ready plates were generated with duplicate 11-point compound dilution series that consisted of 2-fold stepwise dilutions (0.4% DMSO final). […] Trypanosomes were counted using a hemacytometer and diluted in modified HMI-9 media to a concentration of 1.25×10^4 cell/mL. […]
pEC50: −log10 of the molar value.

Compound | Censoring Operator | pEC50
CC(C)N1C(=O)Cc2cc(OCCN3CCC4(CC3)C(=O)Nc3ccc(C#N)cc34)ccc21 | = | 6.45
C[C@]1(O)C[C@@H](n2c(=O)ccc3cc(OCCN4CCC5(CC4)C(=O)Nc4ccc(C(F)F)cc45)cnc32)C1 | = | 7.46
CN1C(=O)CCc2cc(OCCN3CCC4(CC3)C(=O)Nc3ccc(C#N)cc34)cnc21 | = | 6.02
Cc1cc(OCCN2CCC3(CC2)C(=O)Nc2ccc(Cl)cc23)ccc1S(C)(=O)=O | = | 7.06
C[C@]1(O)C[C@@H](n2nnc3cc(OCCN4CCC5(CC4)C(=O)Nc4ccc(C#N)cc45)cc(C(F)(F)F)c32)C1 | = | 7.57
CCC1(O)CN(c2ncc(OCCN3CCC4(CC3)C(=O)Nc3ccc(Cl)cc34)cn2)C1 | = | 6.57
CS(=O)(=O)c1ccc(OCCN2CCC3(CC2)C(=O)Nc2ccc(Cl)cc23)cc1 | = | 6.74
CS(=O)(=O)C1(c2ccc(OCCN3CCC4(CC3)C(=O)Nc3ccc(C#N)cc34)cc2)COC1 | = | 6.41
C[C@]1(O)C[C@@H](N2C(=O)Cc3cc(OCCN4CCC5(CC4)C(=O)Nc4ccc(Cl)cc45)cnc32)C1 | = | 6.62
C[C@]1(O)C[C@@H](n2cnc3cc(OCCN4CCC5(CC4)C(=O)Nc4ccc(Cl)cc45)cc(C#N)c32)C1 | = | 7.29
CS(=O)(=O)c1ccc(OCCN2CCCC3(CC2)C(=O)Nc2ccccc23)cc1 (stereo not drawn) | < | 5.40
CS(=O)(=O)c1ccc(OCCN2CCC3(CC2)C(=O)Nc2ccc(Cl)cc23)cc1F | = | 6.79
NC1CN(C(=O)c2ccc(OCCN3CCC4(CC3)C(=O)Nc3ccc(Cl)cc34)cc2F)C1 | = | 6.06
CS(=O)(=O)c1ccc(OCCN2CCC3(CC2)C(=O)Nc2ccc(Cl)cc23)cc1OC(F)F | = | 7.05
C[C@]1(O)C[C@@H](N2C(=O)C3(CC3)c3cc(OCCN4CCC5(CC4)C(=O)Nc4ccc(Cl)cc45)cnc32)C1 | = | 6.93

* * *

Target: APOL1 G2 (Homo sapiens, UniProt O14791, DEL388-389)
Construct: expressed in transfected cells; host or cells: HEK293 T-REx clonal line stably expressing GCaMP6f (HEK T-REx/GCaMP6f/APOL1 G2 K6.3), doxycycline induced
Sequence (O14791 with tags, fused parts or gaps DEL388-389): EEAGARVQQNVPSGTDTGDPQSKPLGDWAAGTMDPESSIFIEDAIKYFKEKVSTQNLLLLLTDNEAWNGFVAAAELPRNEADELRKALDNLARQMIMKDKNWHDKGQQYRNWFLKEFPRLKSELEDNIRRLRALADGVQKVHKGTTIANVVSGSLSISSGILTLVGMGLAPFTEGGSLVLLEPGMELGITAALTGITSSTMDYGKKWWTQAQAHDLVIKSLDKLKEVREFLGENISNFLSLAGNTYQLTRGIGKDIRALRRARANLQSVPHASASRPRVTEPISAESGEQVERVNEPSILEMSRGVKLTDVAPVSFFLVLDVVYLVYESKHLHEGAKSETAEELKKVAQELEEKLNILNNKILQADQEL
Experiment: APOL1-mediated calcium transport (calcium influx) assay, HEK T-REx/GCaMP6f/APOL1 G2 K6.3 cells, FLIPR TETRA
Format: cell-based
Conditions: prevention of calcium influx; geometric mean of at least 2 assay runs; † = average of a technical replicate from a single assay run

Compound | Tested On | Units Label | AC50
CCC1(O)CN(c2ncc(OCCN3CCC4(CC3)C(=O)Nc3ccc(Cl)cc34)cn2)C1 [Compound 397] | APOL1 G2 (Homo sapiens, UniProt O14791, DEL388-389) | nM | 416
CN(c1ccc(OCCN2CCC3(CC2)C(=O)Nc2ccc(Cl)cc23)cc1)S(C)(=O)=O [Compound 76] | APOL1 G2 (Homo sapiens, UniProt O14791, DEL388-389) | nM | 678
C[C@]1(O)C[C@@H](n2ncc3cc(OCCN4CCC5(CC4)C(=O)Nc4ccc(Cl)cc45)cnc32)C1 (single isomer, unassigned) [Compound 357] | APOL1 G2 (Homo sapiens, UniProt O14791, DEL388-389) | nM | 412
C[C@]1(O)C[C@@H](n2c(=O)ccc3cc(OCCN4CCC5(CC4)C(=O)Nc4ccc(OC(F)F)cc45)cnc32)C1 [Compound 328] | APOL1 G2 (Homo sapiens, UniProt O14791, DEL388-389) | nM | 748
CS(=O)(=O)CCCS(=O)(=O)c1ccc(OCCN2CCC3(CC2)C(=O)Nc2ccc(Cl)cc23)cc1 [Compound 41] | APOL1 G2 (Homo sapiens, UniProt O14791, DEL388-389) | nM | 709
CNC(=O)C1(c2ccc(OCCN3CCC4(CC3)C(=O)Nc3ccc(C#N)cc34)cc2)COC1 [Compound 255] | APOL1 G2 (Homo sapiens, UniProt O14791, DEL388-389) | nM | 2640
O=C1Nc2ccc(Cl)cc2C12CCN(CCOc1cnc3c(N4CC(O)C4)nccc3c1)CC2 [Compound 314] | APOL1 G2 (Homo sapiens, UniProt O14791, DEL388-389) | nM | 968

* * *

system: Trypanosoma brucei Lister 427 VSG221 with APOL1 G1 recombinant protein; assay: APOL1 G1 trypanosome cell rescue assay (Example B5); type: cell-based; conditions: Trypanosoma brucei, 20 h, read-out: APOL1 G1 Trypanosome Rescue EC50, Trypanosoma brucei Lister 427 VSG221 with APOL1 G1 recombinant protein, 20 hours, CellTiter-Glo; geometric mean of at least 2 assay runs; † = single assay run
pEC50: −log10 of the molar value.
Reported pEC50 by item:
Measured Property: pEC50

Molecule | Censoring Operator | Readout Number
CS(=O)(=O)CCCn1ncc2cc(OCCN3CCC4(CC3)C(=O)Nc3ccc(Cl)cc34)ccc21 [Compound 14] | = | 6.31
CC(c1ncc(OCCN2CCC3(CC2)C(=O)Nc2ccc(Cl)cc23)cn1)S(C)(=O)=O (stereo not shown) [Compound 1] | = | 6.53
CN(c1c(F)cc(OCCN2CCC3(CC2)C(=O)Nc2ccc(Cl)cc23)cc1F)S(C)(=O)=O [Compound 127] | = | 7.08
CN=S(C)(=O)c1ccc(OCCN2CCC3(CC2)C(=O)Nc2ccc(C#N)cc23)cc1 (single isomer, unassigned) [Compound 151] | = | 5.88
CC(O)c1ncc(OCCN2CCC3(CC2)C(=O)Nc2ccc(Cl)cc23)cn1 (stereo not shown) [Compound 284] | = | 6.03
CS(=O)(=O)C1(c2c(F)cc(OCCN3CCC4(CC3)C(=O)Nc3ccc(Cl)cc34)cc2F)COC1 [Compound 136] | = | 7.43
[2H]C([2H])([2H])[C@]1(O)C[C@@H](N2C(=O)CCc3cc(OCCN4CCC5(CC4)C(=O)Nc4ccc(Cl)cc45)cnc32)C1 [Compound 461] | = | 7.12
CS(=O)(=O)c1ccc(OCCN2CCC3(CC2)C(=O)Nc2c(C#N)cc(Cl)cc23)cc1 [Compound 9] | < | 5.40
CN1C(=O)Cc2cc(OCCN3CCC4(CC3)C(=O)Nc3ccc(Cl)cc34)ccc21 [Compound 65] | = | 6.53
CC1(S(=O)(=O)c2ccc(OCCN3CCC4(CC3)C(=O)Nc3ccc(C#N)cc34)cc2)COC1 [Compound 93] | = | 6.58
CS(=O)(=O)c1ccc(OCCN2CCC3(CC2)C(=O)N(CCO)c2ccc(Cl)cc23)cc1 [Compound 18] | = | 5.81
CC(=O)N1CCCc2cc(OCCN3CCC4(CC3)C(=O)Nc3ccc(Cl)cc34)ccc21 [Compound 56] | = | 6.50
O=C(c1ccc(OCCN2CCC3(CC2)C(=O)Nc2ccc(Cl)cc23)cc1F)N1CC(O)C1 [Compound 235] | = | 6.34
C[C@]1(O)C[C@@H](n2ccc3cc(OCCN4CCC5(CC4)C(=O)Nc4ccc(Cl)cc45)cnc32)C1 [Compound 349] | = | 7.05
O=C1Nc2ccc(Cl)cc2C12CCN(CCOc1ccc3c(cnn3C3COC3)c1)CC2 [Compound 15] | = | 6.47
CC(=O)N1CCCc2cc(OCCN3CCC4(CC3)C(=O)N(C)c3ccccc34)ccc21 [Compound 36] | < | 5.40
C[C@]1(O)C[C@@H](n2cc3cc(OCCN4CCC5(CC4)C(=O)Nc4ccc(Cl)cc45)cc(C(F)(F)F)c3n2)C1 [Compound 427] | = | 7.74
CS(=O)(=O)c1c(F)cc(OCCN2CCC3(CC2)C(=O)Nc2ccccc23)cc1F [Compound 42] | = | 5.73
CS(=O)(=O)C1(c2ccc(OCCN3CCC4(CC3)C(=O)Nc3ccc(C#N)cc34)cc2)CC1 [Compound 101] | = | 6.70
CC1(C)OCC(c2ncc(OCCN3CCC4(CC3)C(=O)Nc3ccc(Cl)cc34)cn2)O1 (stereo not shown) [Compound 441] | = | 6.67
COCCN1C(=O)C2(CCN(CCOc3ccc(S(C)(=O)=O)cc3)CC2)c2cc(Cl)ccc21 [Compound 20] | = | 6.02
CC1(S(=O)(=O)c2ccc(OCCN3CCC4(CC3)C(=O)Nc3ccc(Cl)cc34)cc2)COC1 [Compound 92] | = | 7.00
Cn1c(=O)oc2cc(OCCN3CCC4(CC3)C(=O)Nc3ccc(C#N)cc34)ccc21 [Compound 132] | = | 6.14
N#Cc1ccc2c(c1)C1(CCN(CCOc3ccc4c(c3)CCC(=O)N4CC(F)F)CC1)C(=O)N2 [Compound 105] | = | 6.56
O=C(c1c(F)cc(OCCN2CCC3(CC2)C(=O)Nc2ccc(Cl)cc23)cc1F)N1CCS(=O)(=O)CC1 [Compound 259] | = | 7.04
CS(=O)(=O)c1ccc(OCCN2CCC3(CC2)C(=O)Nc2ccc(C#N)cc23)cc1Cl [Compound 156] | = | 6.81
O=C1Nc2ccc(Cl)cc2C12CCN(CCOc1ccc(S(=O)(=O)C3CC3)cc1)CC2 [Compound 43] | = | 7.06
CC1(O)CN(c2ncc(OCCN3CCC4(CC3)C(=O)Nc3ccc(C(F)F)cc34)cn2)C1 [Compound 395] | = | 6.51
CS(=O)(=O)c1ccc(OCCN2CCC3(CC2)C(=O)Nc2ccc(C#N)cc23)cc1 [Compound 71] | = | 5.87
O=C(NC1CCS(=O)(=O)C1)c1ccc(OCCN2CCC3(CC2)C(=O)Nc2ccc(Cl)cc23)cc1F (stereo not shown) [Compound 241] | = | 6.59
O=C1CCc2cc(OCCN3CCC4(CC3)C(=O)Nc3ccc(Cl)cc34)ccc2N1CCO [Compound 162] | = | 6.85
